Test system: Schistosoma mansoni
Test: Antischistosomal activity against Schistosoma mansoni assessed as induction of parasite mortality after 72 hrs
Format: functional
Design: concentration or dose not given beside the values
The source made the active and inactive calls. No cut-off for these calls is given here.
Experimental Endpoint: Activity

Worked examples, 8 molecules total:
Smiles Structure | Tgt | Activity
COc1ccc(-c2no[n+]([O-])c2C#N)cc1 | Schistosoma mansoni | 100%
Cc1ccc(-c2no[n+]([O-])c2C#N)cc1 | Schistosoma mansoni | 70%
O=C(O)c1c(-c2ccccc2)no[n+]1[O-] | Schistosoma mansoni | inactive
N#Cc1c(C(=O)c2cccs2)no[n+]1[O-] | Schistosoma mansoni | inactive
N#Cc1c(-c2ccc(F)cc2)no[n+]1[O-] | Schistosoma mansoni | 100%
NC(=O)c1c(-c2ccccc2)no[n+]1[O-] | Schistosoma mansoni | 100%
N#Cc1c(-c2cccc(Cl)c2)no[n+]1[O-] | Schistosoma mansoni | 100%
N#Cc1c(-c2cccc(Br)c2)no[n+]1[O-] | Schistosoma mansoni | 100%

Input line: Consider the molecule "O=C(c1cccs1)c1no[n+]([O-])c1C(=O)c1cccs1" and give its measured Activity.
Output line: inactive

Input line: // query Activity value for entry "COc1cccc(-c2no[n+]([O-])c2C#N)c1"
Output line: 20%

Input line: Which Activity is listed for "N#Cc1c(-c2ccc(F)c(Br)c2)no[n+]1[O-]" ?
Output line: 100%

Input line: Quick one: Activity of "Cc1c(-c2ccccc2)no[n+]1[O-]" ?
Output line: 5%

Input line: Value lookup for Activity; key = "N#Cc1c(-c2cccc([N+](=O)[O-])c2)no[n+]1[O-]"
Output line: 21%

Input line: Find the recorded Activity belonging to "N#Cc1c(-c2ccc(Br)cc2)no[n+]1[O-]" and report it.
Output line: 100%

Input line: Recorded Activity of "COc1cc(-c2no[n+]([O-])c2C#N)cc(OC)c1OC" , please.
Output line: 75%

Input line: // Activity lookup, key: "N#Cc1c(-c2ccc(Cl)cc2)no[n+]1[O-]"
Output line: 100%

Input line: Using the record for "N#Cc1c(-c2ccco2)no[n+]1[O-]" , report its Activity.
Output line: 100%

Input line: Quick one: Activity of "N#Cc1c(-c2cccc(C(F)(F)F)c2)no[n+]1[O-]" ?
Output line: 100%

Input line: Name the reported Activity value associated with the molecule "N#Cc1c(-c2ccc(C(F)(F)F)cc2)no[n+]1[O-]"
Output line: 100%

Input line: Given the molecule "O=Cc1c(-c2ccccc2)no[n+]1[O-]" , what is its reported Activity?
Output line: 5%

Input line: Data request, read-out Activity, for "N#Cc1c(-c2cccs2)no[n+]1[O-]"
Output line: 100%

Input line: # Activity lookup, item "COc1ccccc1-c1no[n+]([O-])c1C#N"
Output line: 60%

Input line: // returns reported Activity for input "N#Cc1c(-c2cccc(O)c2)no[n+]1[O-]"
Output line: inactive

Input line: Fill blank: measured Activity of the molecule "N#Cc1c(-c2ccc(-c3ccccc3)cc2)no[n+]1[O-]" is ____.
Output line: 45%

Input line: Dear colleague, I am looking for the recorded Activity of the following molecule: "N#Cc1c(-c2ccc(O)cc2)no[n+]1[O-]"
Output line: 100%

###

Test: Induction of nitric oxide release at 10 uM in presence of Schistosoma mansoni recombinant TGR
Assay type: functional
Activity values, listed per item
Report as a plain number; the unit % is understood.

Example entries begin here.
Smiles Structure | Activity, %
O=C(O)c1c(-c2ccccc2)no[n+]1[O-] | 2
N#Cc1c(-c2ccc(C(F)(F)F)cc2)no[n+]1[O-] | 2
N#Cc1c(-c2ccc(Cl)cc2)no[n+]1[O-] | 2
N#Cc1c(-c2cccs2)no[n+]1[O-] | 1
COc1cccc(-c2no[n+]([O-])c2C#N)c1 | 2

Input line: Quick check: Activity of "N#Cc1c(-c2cccc([N+](=O)[O-])c2)no[n+]1[O-]" ?
Output line: 2

Input line: Dear colleague, I am looking for the recorded Activity of the following compound: "Cc1ccc(-c2no[n+]([O-])c2C#N)cc1"
Output line: 1

Input line: Please report the recorded Activity for "COc1ccc(-c2no[n+]([O-])c2C#N)cc1" .
Output line: 2

Input line: What does the data say about its Activity? Entry: "N#Cc1c(-c2ccc(F)c(Br)c2)no[n+]1[O-]"
Output line: 2

Input line: Sample "N#Cc1c(-c2ccc(Br)cc2)no[n+]1[O-]" — what was its Activity?
Output line: 4

###

Items are presented alongside their recorded pIC50.
Target: UniProt O89049
Sequence (O89049 whole entry): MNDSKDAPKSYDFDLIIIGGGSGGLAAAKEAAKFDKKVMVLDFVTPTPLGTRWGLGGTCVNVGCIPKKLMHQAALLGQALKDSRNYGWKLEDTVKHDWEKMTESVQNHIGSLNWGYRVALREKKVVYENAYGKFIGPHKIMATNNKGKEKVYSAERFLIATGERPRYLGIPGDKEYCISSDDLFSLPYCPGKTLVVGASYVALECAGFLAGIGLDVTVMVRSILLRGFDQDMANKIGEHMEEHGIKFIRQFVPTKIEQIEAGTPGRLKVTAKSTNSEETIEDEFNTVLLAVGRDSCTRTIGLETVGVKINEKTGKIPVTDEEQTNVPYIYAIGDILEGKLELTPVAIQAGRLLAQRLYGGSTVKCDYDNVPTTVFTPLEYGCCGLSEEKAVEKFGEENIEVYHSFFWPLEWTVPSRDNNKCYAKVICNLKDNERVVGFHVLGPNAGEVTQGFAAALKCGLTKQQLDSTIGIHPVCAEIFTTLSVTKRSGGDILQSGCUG
Assay: Inhibition of rat recombinant TrxR1 after 10 mins
Notebook: values listed as pIC50 are -log10 of the concentration (mol/L).

Recorded results for 3 molecules are shown here.
Smiles Structure | Measurement
N#Cc1c(-c2cccc(Br)c2)no[n+]1[O-] | 3.82
N#Cc1c(-c2cccc(-c3no[n+]([O-])c3C#N)c2)no[n+]1[O-] | 3.82
N#Cc1c(-c2ccc(Br)cc2)no[n+]1[O-] | 3.60

We next turn to a different molecule, shown below.
Input line: State the recorded pIC50 for this entry: "N#Cc1c(-c2cccc([N+](=O)[O-])c2)no[n+]1[O-]"
Output line: 3.82

###

Experiment: Induction of nitric oxide release at 10 uM in presence of Schistosoma mansoni recombinant TGR and NADPH
Type: functional
Experimental Endpoint: Activity (%)
Express your answer in %, writing the number without its unit.

Input line: Can you look up the measured Activity of "Cc1ccc(-c2no[n+]([O-])c2C#N)cc1" for me?
Output line: 15

Input line: For the compound "N#Cc1c(-c2cccc([N+](=O)[O-])c2)no[n+]1[O-]" , what Activity is on record?
Output line: 16

Input line: What measured Activity goes with "N#Cc1c(-c2cccc(C(F)(F)F)c2)no[n+]1[O-]" ?
Output line: 20

Input line: I would be grateful if you could share the reported Activity for "N#Cc1c(-c2cccc(Br)c2)no[n+]1[O-]" .
Output line: 19

Input line: Return reported Activity; argument: "O=Cc1c(-c2ccccc2)no[n+]1[O-]"
Output line: 7

###

Experiment: Induction of nitric oxide release at 10 uM in presence of cysteine
Type: physicochemical
Kindly return YES if reported Activity is no lower than 20%; return NO if it is lower.

Smiles Structure | Assigned Category
N#Cc1c(-c2ccc(Cl)cc2)no[n+]1[O-] | YES
N#Cc1no[n+]([O-])c1-c1ccccc1 | NO
N#Cc1nonc1-c1ccccc1 | NO
Cc1ccc(-c2no[n+]([O-])c2C#N)cc1 | YES
N#Cc1c(-c2cccc([N+](=O)[O-])c2)no[n+]1[O-] | YES

Input line: Hi team, for "N#Cc1c(-c2cccc(C(F)(F)F)c2)no[n+]1[O-]" , is the recorded Activity at or above 20%?
Output line: YES

Input line: Answer whether Activity of "O=C(O)c1c(-c2ccccc2)no[n+]1[O-]" is greater than or equal to 20%.
Output line: NO

Input line: Determine whether this compound has Activity no lower than 20%: "Cc1c(-c2ccccc2)no[n+]1[O-]"
Output line: NO

Input line: Does the reported Activity for "COc1cccc(-c2no[n+]([O-])c2C#N)c1" fall at or above the 20% mark?
Output line: YES

Input line: State whether the measured Activity reaches 20%, counting equality as reaching it, for "N#Cc1c(-c2ccc(C(F)(F)F)cc2)no[n+]1[O-]"
Output line: YES

Input line: Say whether "N#Cc1c(-c2ccc(Br)cc2)no[n+]1[O-]" shows Activity of 20% or more.
Output line: YES

###

Test system: Schistosoma mansoni
Test: Antischistosomal activity against Schistosoma mansoni assessed as induction of parasite mortality after 24 hrs
Format: functional
Set-up: concentration or dose not given beside the values
Measured Activity accompanies every entry in the list below.
Form entry: value (%) — number only.

Smiles Structure | Activity [%]
N#Cc1c(-c2cccc(C(F)(F)F)c2)no[n+]1[O-] | 54
N#Cc1c(-c2cccc([N+](=O)[O-])c2)no[n+]1[O-] | 10
N#Cc1c(-c2ccc(O)cc2)no[n+]1[O-] | 40
COc1ccc(-c2no[n+]([O-])c2C#N)cc1 | 29

Input line: Quick one: Activity of "N#Cc1c(-c2ccc(F)c(Br)c2)no[n+]1[O-]" ?
Output line: 5

###

# key: entry, value: Activity
Experiment: Induction of nitric oxide release at 10 uM in presence of Schistosoma mansoni recombinant TGR
Type: functional
Value expressed in %; do not type the unit.

Smiles Structure | Units Of Measure | Activity
N#Cc1c(-c2cccc(C(F)(F)F)c2)no[n+]1[O-] | % | 2
N#Cc1c(-c2cccc(Cl)c2)no[n+]1[O-] | % | 1

Now for another entry.
Input line: Can you look up the measured Activity of "N#Cc1c(-c2ccccc2)no[n+]1[O-]" for me?
Output line: 1.5
